Hi there, I'd appreciate the recorded self-cleavage for every entry that follows.
B1: CPEB3 Ribozyme (parent)
chain: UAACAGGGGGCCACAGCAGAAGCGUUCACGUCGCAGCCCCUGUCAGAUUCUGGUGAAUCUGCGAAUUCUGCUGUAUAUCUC

Variants of: B1
measurement-description: self-cleavage, relative activity (ratio to wild type); higher = more cleavage; in vitro, sequencing
Answers are plain numbers.

Some variants with known self-cleavage results, for comparison:
* U26C A64G | 0.36
* A28G U72G | 0.56
* A5G U41G | 0.28
* A35U U48C | 0.32
* C23G A65U | 0.22

Provide reported self-cleavage for each item, in the same order as listed.
1. A5U A77G
2. U1G A13G

Result:
[1.09, 0.66]

For every item below, please supply its self-cleavage.
1. A3U A5G
2. G6U U43C
3. C14U C32G
4. U25A G70C
5. C40U A75U
6. U60G U72G
7. U43C C68U

Result:
1. 0.79
2. 0.32
3. 0.1
4. 0.07
5. 0.74
6. 0.28
7. 0.32

Please go through the list and note self-cleavage for each variant.
1. G52U U76C
2. A3G G8A
3. U58A U67A
4. A57U U69A
5. U26G U41C

Result:
1.19
0.37
0.32
0.4
0.4

Could you tell me self-cleavage for each of these variants? They are listed below.
1. A65U U66C
2. U51C
3. A5U A15U

Result:
[0.38, 1.04, 1.1]
